- assayed.target: FK506 binding protein 12 (FKBP12) (Homo sapiens, UniProt P42345+P62942)
- Construct: pAsh-FKBP12 co-transfected with phAG-mTOR in HeLa cells; with mTOR
- Sequence (P62942 2-108, other chains not shown): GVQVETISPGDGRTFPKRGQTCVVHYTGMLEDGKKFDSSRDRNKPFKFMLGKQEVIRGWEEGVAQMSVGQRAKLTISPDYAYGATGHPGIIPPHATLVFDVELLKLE
- experimental.protocol: Fluoppi cell assay of FKBP12-mTOR ternary complex formation in HeLa cells
measurement.type: EC50 (nM)
Could you give me the number in nM? Just the number is fine.

Please indicate EC50 recorded for COC1CC(O)CC(=O)CC(=O)N2CCCCC2C(=O)OC(C(C)CC2CCC(O)C(OC)C2)CC(=O)C(C)C=C(C)C(O)C(OC)C(=O)C(C)CC(C)C=CC=CC=C1C (mixture of isomers)
1880
